system: P. aeruginosa PAO1; design: unit not given beside the values; settings: antibiotic in combination with 5
measured property: MICDrug in combo

Known MICDrug in combo results, listed for orientation:
CCN1CCN(C(=O)N[C@@H](C(=O)N[C@@H]2C(=O)N3[C@@H]2SC(C)(C)[C@@H]3C(=O)O)c2ccccc2)C(=O)C1=O [Piperacillin, reference compound]; (2)
CC(C)(O/N=C(\C(=O)N[C@@H]1C(=O)N2C(C(=O)[O-])=C(C[n+]3ccccc3)CS[C@H]12)c1csc(N)n1)C(=O)O [Ceftazidime, reference compound]; (0.25)
COc1cc(Cc2cnc(N)nc2N)cc(OC)c1OC [Trimethoprim, reference compound]; (16)
C[C@@H]1O[C@@H]1P(=O)(O)O [Fosfomycin, reference compound]; (1)
CO[C@H]1/C=C/O[C@@]2(C)Oc3c(C)c(O)c4c(O)c(c(/C=N/N5CCN(C)CC5)c(O)c4c3C2=O)NC(=O)/C(C)=C\C=C\[C@H](C)[C@H](O)[C@@H](C)[C@@H](O)[C@@H](C)[C@H](OC(C)=O)[C@@H]1C [Rifampicin, reference compound]; (1)

Give the measured MICDrug in combo for COc1c(N2C[C@@H]3CCCN[C@@H]3C2)c(F)cc2c(=O)c(C(=O)O)cn(C3CC3)c12 [Moxifloxacin, reference compound]
(0.25)

Value source: patent US20210261621A1
